Measured values drawn from patent US10548898B2 for this set.

Tested on: HIV-1 reverse transcriptase mutant K103N
Test: High throughput cytopathic effect assay in MT-4 cells, K103N mutant
Assay type: cell-based
Details: fold change of MT4 EC50 versus w.t. assay 2
Procedure: Compounds were screened in a miniaturized, high throughput cytopathic effect assay for activity against HIV-1 HBX2 (wild type) and HIV-1 reverse transcriptase mutants K103N and Y181C. In Tables 1 and 2 below. […] Ten-point serial dilutions of compounds with half-log step size were generated in DMSO. […] To measure the cytopathic effect of HIV, 40 μL Cell TiterGlo was added to each well and the resulting luminescence signal is read with the Envision plate reader (Perkin Elmer). […]
Listed below: FC against mutant K103N values for each entry.
experimental readout: FC against mutant K103N

1. Cc1cc(/C=C/C#N)cc(C)c1-c1cccc2c(N)nc(Nc3ccc(C#N)nn3)nc12 [Compound 11]
1.2
2. Cc1cc(/C=C/C#N)cc(C)c1-c1cc([N+](=O)[O-])cc2c(N)nc(Nc3ccc(C#N)cn3)nc12 [Compound 22]
1.2
3. Cc1cc(/C=C/C#N)cc(C)c1-c1cc(Cl)cc2c(N)nc(Nc3ccc(C#N)cc3)nc12 [Compound 19]
1.0
4. C/C(=C/C#N)c1cc(C)c(-c2cccc3c(N)nc(Nc4ccc(C#N)cc4)nc23)c(C)c1 [Compound 39]
1.4
5. CCc1cc(/C=C/C#N)cc(CC)c1-c1cccc2c(N)nc(Nc3ccc(C#N)cn3)nc12 [Compound 36]
1.0
6. Cc1cc(/C=C/C#N)cc(C)c1-c1cccc2c(N)nc(Nc3ccc(C#N)nc3)nc12 [Compound 9]
1.1
7. Cc1cc(/C=C/C#N)cc(C)c1-c1cc(F)cc2cnc(Nc3ccc(C#N)cn3)nc12 [Compound 14]
1.2
8. Cc1cc(-c2c(C)cc(/C=C/C#N)cc2C)c2nc(Nc3ccc(C#N)cn3)nc(N)c2c1 [Compound 21]
1.0
